- Tested on: NCI-H1975
- experiment_description: CCK-8 tumor cell proliferation, NCI-H1975
- Type: cell-based, Human
- condition: Table 7, designed based on BTK inhibitors; 96 h
attribute_measured: IC50 for inhibiting the proliferation of tumor cells, NCI-H1975

compound="Nc1ncnc2c1c(-c1ccc(Oc3ccccc3)cc1)nn2C1CCN(Cc2ccc3c(c2F)CN(C2CCC(=O)NC2=O)C3=O)CC1 (stereo not drawn)" readout_value=A+
compound="Nc1ncnc2c1c(-c1ccc(Oc3ccccc3)cc1)nn2[C@H]1CCN(Cc2ccc3c(c2)CN(C2CCC(=O)NC2=O)C3=O)C[C@H]1F (stereo partly drawn)" readout_value=A+
compound="Nc1ncnc2c1c(-c1ccc(Oc3ccccc3)cc1)nn2[C@@H]1CCN(Cc2ccc3c(c2)CN(C2CCC(=O)NC2=O)C3=O)C[C@@H]1F (stereo partly drawn)" readout_value=A+

====

- Tested on: T47D
- experiment_description: CCK-8 tumor cell proliferation, T47D
- Assay type: cell-based, Human
- condition: Homo sapiens; Table 22; T47D; given as number; read-out: IC50 inhibiting proliferation of tumor cells, T47D
pIC50: −log10 of the molar value.
attribute_measured: pIC50

In: What value of pIC50 has been recorded for this entry: O=C(Nc1cnn2ccc(N3CCC[C@@H]3c3cc(F)ccc3F)nc12)N1CC[C@H](O)C1 [larotrectinib]
Out: < 5.00

====

- Test system: MDA-MB-231
- experiment_description: CCK-8 tumor cell proliferation, MDA-MB-231
- Format: cell-based, Human
- condition: Homo sapiens; Table 18, FAK inhibitor based; MDA-MB-231; read-out: IC50 inhibiting proliferation of tumor cells, MDA-MB-231
pIC50: −log10 of the molar value.
attribute_measured: pIC50

Recorded pIC50, per entry:
compound="CNC(=O)c1ccccc1Nc1cc(Nc2ccc(N3CCC(N(C)Cc4ccc5c(c4)CN(C4CCC(=O)NC4=O)C5=O)CC3)cc2OC)ncc1C(F)(F)F (centres unmarked)" assay_target=MDA-MB-231 readout_value="> 7.30"
compound="Cc1cnc(Nc2ccc(N3CCC(N(C)Cc4ccc5c(c4)CN(C4CCC(=O)NC4=O)C5=O)CC3)cc2)nc1Nc1cccc(S(=O)(=O)NC(C)(C)C)c1 (centres unmarked)" assay_target=MDA-MB-231 readout_value="> 7.30"
compound="CNC(=O)c1ccccc1Nc1cc(Nc2ccc(N3CCC(N(C)Cc4cc5c(cc4F)C(=O)N(C4CCC(=O)NC4=O)C5)CC3)cc2OC)ncc1C(F)(F)F (centres unmarked)" assay_target=MDA-MB-231 readout_value="7.00 to 7.30"
compound="CN(c1nccnc1CNc1nc(Nc2ccc(N3CCN(Cc4ccc5c(c4)CN(C4CCC(=O)NC4=O)C5=O)CC3)cc2)ncc1C(F)(F)F)S(C)(=O)=O (centres unmarked)" assay_target=MDA-MB-231 readout_value="6.00 to 6.30"
compound="CS(=O)(=O)c1cccc(CNc2nc(Nc3ccc(N4CCN(Cc5cc6c(cc5F)C(=O)N(C5CCC(=O)NC5=O)C6)CC4)cc3)ncc2C(F)(F)F)c1 (centres unmarked)" assay_target=MDA-MB-231 readout_value="> 7.30"
compound="CNC(=O)c1ccccc1Nc1cc(Nc2ccc(N3CCC(N(C)Cc4cccc5c4CN(C4CCC(=O)NC4=O)C5=O)CC3)cc2OC)ncc1C(F)(F)F (centres unmarked)" assay_target=MDA-MB-231 readout_value="5.30 to 6.00"
compound="CNC(=O)c1ccccc1Nc1cc(Nc2ccc(N3CCC(N4CCN(Cc5cc(F)c6c(c5)CN(C5CCC(=O)NC5=O)C6=O)CC4)CC3)cc2OC)ncc1C(F)(F)F (centres unmarked)" assay_target=MDA-MB-231 readout_value="6.00 to 6.30"

In: Need pIC50 of CNC(=O)c1ccccc1Nc1cc(Nc2ccc(N3CCN(Cc4ccc5c(c4F)CN(C4CCC(=O)NC4=O)C5=O)CC3)cc2OC)ncc1C(F)(F)F (centres unmarked) , thanks.
Out: > 7.30
